Target: T1, hu-M-IL1RAP construct, positions S21-T367 (extracellular domain of the membrane form of human IL1RAP) (human, UniProt Q9NPH3 21-367)
T1 construct: Biotinylated when captured on the Biacore chip
T1 sequence: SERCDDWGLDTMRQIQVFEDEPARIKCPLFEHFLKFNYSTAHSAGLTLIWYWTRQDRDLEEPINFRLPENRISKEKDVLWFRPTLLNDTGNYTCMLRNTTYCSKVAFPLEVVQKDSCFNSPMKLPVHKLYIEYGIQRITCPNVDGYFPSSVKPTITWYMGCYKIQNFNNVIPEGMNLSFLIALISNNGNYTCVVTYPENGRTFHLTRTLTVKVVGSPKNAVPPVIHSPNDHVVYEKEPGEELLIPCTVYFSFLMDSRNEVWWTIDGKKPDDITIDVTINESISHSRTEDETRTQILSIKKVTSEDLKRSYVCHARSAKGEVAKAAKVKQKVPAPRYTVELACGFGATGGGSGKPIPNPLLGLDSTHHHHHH
Test: SPR, Fab against parent Fab
Reported Endpoint: Fold Improvement in KD @ 37° C.

Some binders with recorded Fold Improvement in KD @ 37° C.:
Binder	Recorded Result
H2 Fab (VH R96D) (Fab, V domains shown, Fab with 8xHis tag) VH: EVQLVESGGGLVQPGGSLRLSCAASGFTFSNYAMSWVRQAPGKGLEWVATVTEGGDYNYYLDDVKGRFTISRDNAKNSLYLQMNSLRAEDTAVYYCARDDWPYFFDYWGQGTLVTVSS VL: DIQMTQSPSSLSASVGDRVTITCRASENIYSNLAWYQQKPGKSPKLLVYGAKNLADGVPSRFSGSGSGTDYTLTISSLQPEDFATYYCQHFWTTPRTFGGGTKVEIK	2.39 fold
K10 Fab (VL A51Y) (Fab, V domains shown, Fab with 8xHis tag) VH: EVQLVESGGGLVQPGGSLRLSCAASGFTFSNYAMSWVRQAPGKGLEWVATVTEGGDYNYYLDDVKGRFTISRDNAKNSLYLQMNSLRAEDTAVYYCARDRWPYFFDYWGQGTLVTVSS VL: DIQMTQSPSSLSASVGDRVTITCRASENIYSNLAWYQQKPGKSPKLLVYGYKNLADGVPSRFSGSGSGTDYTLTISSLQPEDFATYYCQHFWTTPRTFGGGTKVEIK	8.99 fold
H6 Fab (VH R96Q) (Fab, V domains shown, Fab with 8xHis tag) VH: EVQLVESGGGLVQPGGSLRLSCAASGFTFSNYAMSWVRQAPGKGLEWVATVTEGGDYNYYLDDVKGRFTISRDNAKNSLYLQMNSLRAEDTAVYYCARDQWPYFFDYWGQGTLVTVSS VL: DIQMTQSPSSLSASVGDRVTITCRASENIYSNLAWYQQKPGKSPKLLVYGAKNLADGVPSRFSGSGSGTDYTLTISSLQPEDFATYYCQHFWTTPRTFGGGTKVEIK	1.43 fold

// moving on: another record for Fold Improvement in KD @ 37° C.
In: Would you kindly share the measured Fold Improvement in KD @ 37° C. for H3 Fab (VH V51S) (Fab, V domains shown, Fab with 8xHis tag) VH: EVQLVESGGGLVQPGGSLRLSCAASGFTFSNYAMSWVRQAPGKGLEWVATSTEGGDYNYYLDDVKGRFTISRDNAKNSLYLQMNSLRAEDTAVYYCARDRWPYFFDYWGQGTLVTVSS VL: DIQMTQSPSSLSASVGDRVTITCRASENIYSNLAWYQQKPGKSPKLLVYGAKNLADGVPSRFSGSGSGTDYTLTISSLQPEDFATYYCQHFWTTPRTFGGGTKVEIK ?
Out: 2.14 fold

Data origin: patent US20260015426A1
